Listed here are compounds together with their documented DC50.
target: TYK2 (Homo sapiens, UniProt P29597); experiment: TYK2 degradation MSD assay in EBV-B cells; type: cell-based; set-up: endogenous in cells; host or cells: EBV-B cells; conditions: 4 to 24 hours incubation, read-out: TYK2 MSD DC50 rating in EBV-B
Sequence (P29597 whole entry): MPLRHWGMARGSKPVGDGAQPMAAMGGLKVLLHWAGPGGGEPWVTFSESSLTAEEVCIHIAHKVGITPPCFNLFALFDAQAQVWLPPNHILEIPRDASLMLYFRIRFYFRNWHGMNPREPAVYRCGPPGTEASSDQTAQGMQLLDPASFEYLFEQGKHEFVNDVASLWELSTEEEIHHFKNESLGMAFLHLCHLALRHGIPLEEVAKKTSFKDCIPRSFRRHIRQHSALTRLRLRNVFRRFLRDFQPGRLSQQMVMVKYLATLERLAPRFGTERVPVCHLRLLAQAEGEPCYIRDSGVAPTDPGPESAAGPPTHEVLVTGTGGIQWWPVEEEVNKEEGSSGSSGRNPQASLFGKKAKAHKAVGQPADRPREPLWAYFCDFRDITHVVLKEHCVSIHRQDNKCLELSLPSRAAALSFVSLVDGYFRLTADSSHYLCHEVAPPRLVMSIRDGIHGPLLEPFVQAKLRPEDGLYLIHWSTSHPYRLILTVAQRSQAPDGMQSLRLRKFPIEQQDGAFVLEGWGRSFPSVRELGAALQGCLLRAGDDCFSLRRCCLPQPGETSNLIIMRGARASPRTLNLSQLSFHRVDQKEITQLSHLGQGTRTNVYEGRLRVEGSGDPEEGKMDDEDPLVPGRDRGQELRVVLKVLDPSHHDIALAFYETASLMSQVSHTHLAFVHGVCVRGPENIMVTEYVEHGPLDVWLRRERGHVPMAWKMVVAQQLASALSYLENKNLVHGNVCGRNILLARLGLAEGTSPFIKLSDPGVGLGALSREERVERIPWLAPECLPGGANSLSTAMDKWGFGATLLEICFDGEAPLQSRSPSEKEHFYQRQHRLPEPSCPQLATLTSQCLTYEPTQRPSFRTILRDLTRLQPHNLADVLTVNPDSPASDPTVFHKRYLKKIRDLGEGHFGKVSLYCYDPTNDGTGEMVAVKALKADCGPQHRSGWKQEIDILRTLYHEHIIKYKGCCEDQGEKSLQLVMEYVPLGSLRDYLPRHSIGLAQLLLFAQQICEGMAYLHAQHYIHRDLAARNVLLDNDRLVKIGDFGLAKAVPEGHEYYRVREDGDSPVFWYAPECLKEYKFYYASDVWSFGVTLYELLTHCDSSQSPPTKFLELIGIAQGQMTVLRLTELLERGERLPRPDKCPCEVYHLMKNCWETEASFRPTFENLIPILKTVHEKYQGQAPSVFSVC

INSERT INTO assay_data (compound, result) VALUES
  ('CNC(=O)c1cnc(Nc2ccc(CN3CCC(CN4CCC(c5ccc6c(c5)n(C)c(=O)n6C5CCC(=O)NC5=O)CC4)CC3)cn2)cc1Nc1cccc(-c2ncc(F)cn2)c1OC (stereo not shown)', '< 1 nM'),
  ('CNc1cc(-c2cnn(C3CCC(CN(C)C4CCN(c5ccc6c(c5)n(C)c(=O)n6C5CCC(=O)NC5=O)CC4)CC3)c2)nn2c(C(=O)N[C@@H]3C[C@@H]3F)cnc12 (stereo partly shown)', '> 100 nM'),
  ('CNc1cc(Nc2cccc(C(=O)NCCCCc3ccc4c(c3)n(C)c(=O)n4C3CCC(=O)NC3=O)c2)nn2c(C(=O)N[C@@H]3C[C@@H]3F)cnc12 (stereo partly shown) [Example K368]', '> 100 nM'),
  ('CNc1cc(Nc2cccc(N3CCC(CN4CC5(C4)CN(c4ccc(-c6ccc7c(c6)n(C)c(=O)n7C6CCC(=O)NC6=O)cc4)C5)CC3)c2OC)nn2c(C(=O)N[C@@H]3C[C@@H]3F)cnc12 (stereo partly shown)', '> 100 nM'),
  ('CNC(=O)c1cnc(Nc2ccc(CN(C)C3CCCN(c4ccc5c(c4)n(C)c(=O)n5C4CCC(=O)NC4=O)C3)cn2)cc1Nc1cccc(-c2ncc(F)cn2)c1OC (stereo not shown)', '< 1 nM');

For the compound shown here, CNc1cc(Nc2cccc(CN3CCC4(CC3)CC(Cc3ccc5c(c3)n(C)c(=O)n5C3CCC(=O)NC3=O)C4)c2)nn2c(C(=O)NC3CC3)cnc12 (stereo not shown) , give the reported DC50.
> 100 nM

For the compound shown here, CNc1cc(Nc2cccc(-c3ccc(CN4CCN(C5CCN(c6ccc7c(c6)n(C)c(=O)n7C6CCC(=O)NC6=O)CC5)CC4)cn3)c2)nn2c(C(=O)N[C@@H]3C[C@@H]3F)cnc12 (stereo partly shown) , give the reported DC50.
> 100 nM

For the compound shown here, CNc1cc(N2CCc3c(N4CCC(CC5CC6(CCN(C(=O)c7ccc(Cl)c(N8CCC(=O)NC8=O)c7)CC6)C5)CC4)cccc32)nn2c(C(=O)N[C@@H]3C[C@@H]3F)cnc12 , give the reported DC50.
> 100 nM

For the compound shown here, Cn1c(=O)n(C2CCC(=O)NC2=O)c2ccc(CN3CCC(Nc4cc(Nc5cccn(-c6ccccn6)c5=O)nn5c(C(=O)N[C@@H]6C[C@@H]6F)cnc45)CC3)cc21 (stereo partly shown) , give the reported DC50.
> 100 nM

For the compound shown here, CNc1cc(-c2cnn(C3CCN(C(=O)NCCCCCCc4cccc5c4n(C)c(=O)n5C4CCC(=O)NC4=O)CC3)c2)nn2c(C(=O)N[C@@H]3C[C@@H]3F)cnc12 (stereo partly shown) , give the reported DC50.
> 100 nM

====

biological target: TYK2 (Homo sapiens, UniProt P29597); test: TYK2 degradation MSD assay in OCI-LY10 cells; format: cell-based; parameters: endogenous in cells; host or cells: EBV-B cells; conditions: 4 to 24 hours incubation, read-out: TYK2 MSD DC50 rating in OCI-LY10
Listed here are molecules together with their documented DC50.

Worked examples, 3 molecules total:
INSERT INTO measurements (molecule, result) VALUES
  ('CNc1cc(Oc2cnn(C3CCN(CC4CCN(c5ccc(-c6ccc7c(c6)n(C)c(=O)n7C6CCC(=O)NC6=O)cc5)CC4)CC3)c2)nn2c(C(=O)N[C@@H]3C[C@@H]3F)cnc12 (mixture of isomers)', '> 100 nM'),
  ('CNc1cc(Nc2cccn(-c3ccc(C(=O)N4CCN(C(=O)C5CC(N6CCC(OCCCc7ccc8c(c7)n(C)c(=O)n8C7CCC(=O)NC7=O)CC6)C5)CC4)cn3)c2=O)nn2c(C(=O)N[C@@H]3C[C@@H]3F)cnc12 (stereo partly shown)', '1 to 10 nM'),
  ('O=C1CCN(c2cnc3cc(CCOCCOCCOCCOCCNc4cc(Nc5cccn(-c6ccccn6)c5=O)nn5c(C(=O)N[C@@H]6C[C@@H]6F)cnc45)ccn23)C(=O)N1', '> 100 nM');

For the molecule shown here, CNc1cc(Nc2cccn(-c3ccc(C(=O)N[C@H]4CC[C@H](CN5CCC6(CC5)CN(Cc5cccc7c5n(C)c(=O)n7C5CCC(=O)NC5=O)C6)CC4)cn3)c2=O)nn2c(C(=O)N[C@@H]3C[C@@H]3F)cnc12 (stereo partly shown) , give the reported DC50.
< 1 nM

For the molecule shown here, CNc1cc(Nc2cccc(-c3ccc(CN4CCC(N5CC(N6CCN(c7cccc8c7n(C)c(=O)n8C7CCC(=O)NC7=O)CC6)C5)CC4)cn3)c2)nn2c(C(=O)N[C@@H]3C[C@@H]3F)cnc12 (stereo partly shown) , give the reported DC50.
< 1 nM

For the molecule shown here, CNc1cc(Nc2cccc(-c3ccc(CN4CCC(N5CC(c6cccc7c6n(C)c(=O)n7C6CCC(=O)NC6=O)C5)CC4)cn3)c2)nn2c(C(=O)N[C@@H]3C[C@@H]3F)cnc12 (stereo partly shown) , give the reported DC50.
< 1 nM

For the molecule shown here, CNC(=O)c1cnc(Nc2ccc(CN3CCC(c4cccc5c4n(C)c(=O)n5C4CCC(=O)NC4=O)CC3)cn2)cc1Nc1cccc(-c2ncc(F)cn2)c1OC (stereo not shown) , give the reported DC50.
> 100 nM

For the molecule shown here, CNc1cc(Nc2cccc(N3CCC(CN4CCC(C#Cc5cccc6c5n(C)c(=O)n6C5CCC(=O)NC5=O)CC4)CC3)c2)nn2c(C(=O)N[C@@H]3C[C@@H]3F)cnc12 (stereo partly shown) , give the reported DC50.
1 to 10 nM

For the molecule shown here, CNc1cc(N2CCc3c(-c4ccc(CN5CCN(c6cccc7c6n(C)c(=O)n7C6CCC(=O)NC6=O)CC5)cn4)cccc32)nn2c(C(=O)N[C@@H]3C[C@@H]3F)cnc12 (stereo partly shown) , give the reported DC50.
1 to 10 nM

For the molecule shown here, CNC(=O)c1cnc(Nc2ccc(CN3CCC(c4ccc5c(c4)n(C)c(=O)n5C4CCC(=O)NC4=O)CC3)cn2)cc1Nc1cccc(-c2ncc(F)cn2)c1OC (stereo not shown) , give the reported DC50.
> 100 nM

====

target: TYK2 (Homo sapiens, UniProt P29597); experiment: TYK2 degradation MSD assay in human PBMC cells; format: cell-based; set-up: endogenous in cells; host or cells: human PBMC; conditions: 4 to 24 hours incubation, read-out: TYK2 MSD DC50 rating in human PBMC
assay-metric: DC50

INSERT INTO measurements (molecule, result) VALUES
  ('Cn1c(=O)n(C2CCC(=O)NC2=O)c2cccc(CCOCCOCCNc3cc(Nc4cccn(-c5ccccn5)c4=O)nn4c(C(=O)N[C@@H]5C[C@@H]5F)cnc34)c21 (stereo partly drawn) [Example K212]', '> 100 nM'),
  ('CNc1cc(Nc2cccn(-c3cc(C(=O)NCCCCCCc4cccc5c4n(C)c(=O)n5C4CCC(=O)NC4=O)ccn3)c2=O)nn2c(C(=O)N[C@@H]3C[C@@H]3F)cnc12 (stereo partly drawn) [Example K230]', '1 to 10 nM');

Attention now turns to another entry.
For the molecule shown here, CNc1cc(Nc2cccn(-c3ccc(C(=O)N4CCC(CN5CCC56CN(c5ncc(C#Cc7ccc8c(c7)n(C)c(=O)n8C7CCC(=O)NC7=O)cn5)C6)CC4)cn3)c2=O)nn2c(C(=O)N[C@@H]3C[C@@H]3F)cnc12 (stereo partly drawn) [Example K375] , give the reported DC50.
> 100 nM

====

target: UniProt:P29597; assay: TYK2 degradation MSD assay in OCI-LY10 cells; format: cell-based; set-up: endogenous in cells; host or cells: EBV-B cells; settings: 4 to 24 hours incubation, read-out: TYK2 MSD DC50 rating in OCI-LY10
Listed here are compounds together with their documented DC50.

INSERT INTO measurements (compound, assay_metric, result) VALUES
  ('CNC(=O)c1cnc(Nc2cc(CN3CCN(c4cccc5c4n(C)c(=O)n5C4CCC(=O)NC4=O)CC3)ccn2)cc1Nc1cccc(-c2ncc(F)cn2)c1OC (centres unmarked) [Example K176]', 'DC50', '> 0.1 µM'),
  ('CNc1cc(Nc2cccn(-c3ccc(C(=O)N4CCC(CN5CCCC(c6cccc7c6n(C)c(=O)n7C6CCC(=O)NC6=O)C5)CC4)cn3)c2=O)nn2c(C(=O)N[C@@H]3C[C@@H]3F)cnc12 (some centres unmarked) [Example K451]', 'DC50', '< 0.001 µM'),
  ('CNc1cc(Nc2cccc(-c3ccc(CN4CC5(CCN(C(=O)c6ccc(Cl)c(N7CCC(=O)NC7=O)c6)CC5)C4)cn3)c2)nn2c(C(=O)N[C@@H]3C[C@@H]3F)cnc12 [Example K506]', 'DC50', '0.001 to 0.01 µM'),
  ('CNc1cc(N2CCc3c(N4CCC(CN5CCC(C#Cc6cccc7c6n(C)c(=O)n7C6CCC(=O)NC6=O)CC5)CC4)cccc32)nn2c(C(=O)N[C@@H]3C[C@@H]3F)cnc12 (some centres unmarked) [Example K635]', 'DC50', '0.001 to 0.01 µM');

For the compound shown here, CNc1cc(N2CCc3c(-c4ccc(CN5CCC6(CC5)CCN(c5ccc7c(c5)n(C)c(=O)n7C5CCC(=O)NC5=O)CC6)cn4)cccc32)nn2c(C(=O)N[C@@H]3C[C@@H]3F)cnc12 (mixture of isomers) [Example K544] , give the reported DC50.
< 0.001 µM

For the compound shown here, CNc1cc(Nc2cccc(CN3CCN(c4cccc5c4n(C)c(=O)n5C4CCC(=O)NC4=O)CC3)c2)nn2c(C(=O)NC3CC3)cnc12 (centres unmarked) [Example K594] , give the reported DC50.
> 0.1 µM

For the compound shown here, CNc1cc(Nc2cccc(-c3ccc(CN4CCN(c5ccc6c(c5)n(C)c(=O)n6C5CCC(=O)NC5=O)CC4)cn3)c2)nn2c(C(=O)N[C@@H]3C[C@@H]3F)cnc12 (some centres unmarked) [Example K523] , give the reported DC50.
0.001 to 0.01 µM

For the compound shown here, CNc1cc(N2CCc3c(-c4cc(CN5CCN(c6ccc7c(c6)n(C)c(=O)n7C6CCC(=O)NC6=O)CC5)ccn4)cccc32)nn2c(C(=O)NC3CC3F)cnc12 (centres unmarked) [Example K657] , give the reported DC50.
< 0.001 µM

For the compound shown here, CNc1cc(Nc2cccn(-c3ccc(CN4CCN([C@H]5CC[C@H](c6ccc(-c7ccc8c(c7)n(C)c(=O)n8C7CCC(=O)NC7=O)cc6)CC5)CC4)cn3)c2=O)nn2c(C(=O)N[C@@H]3C[C@@H]3F)cnc12 (some centres unmarked) [Example K454] , give the reported DC50.
< 0.001 µM

For the compound shown here, CNc1cc(Nc2cccn(-c3ccc(C(=O)N4CCC(CN5CCC(c6ccc7c(c6)n(C)c(=O)n7C6CCC(=O)NC6=O)CC5)CC4)cn3)c2=O)nn2c(C(=O)N[C@@H]3C[C@@H]3F)cnc12 (some centres unmarked) [Example K408] , give the reported DC50.
< 0.001 µM

For the compound shown here, CNc1cc(Nc2cccn(-c3cc(C(=O)NCCCCCCCCc4ccc5c(c4)n(C)c(=O)n5C4CCC(=O)NC4=O)ccn3)c2=O)nn2c(C(=O)N[C@@H]3C[C@@H]3F)cnc12 (some centres unmarked) [Example K231] , give the reported DC50.
> 0.1 µM

For the compound shown here, CNC(=O)c1cnc(Nc2ccc(CN3CCCC(c4ccc5c(c4)n(C)c(=O)n5C4CCC(=O)NC4=O)C3)cn2)cc1Nc1cccc(-c2ncc(F)cn2)c1OC (centres unmarked) [Example K168] , give the reported DC50.
> 0.1 µM

For the compound shown here, Cn1c(=O)n(C2CCC(=O)NC2=O)c2cccc(C3CN(C4CCN(Cc5ccc(-c6cccc(Nc7ccc8ncc(C(=O)NC9CC9)n8n7)c6)nc5)CC4)C3)c21 (centres unmarked) [Example K403] , give the reported DC50.
> 0.1 µM

For the compound shown here, Cn1c(=O)n(C2CCC(=O)NC2=O)c2ccc(-c3ccc(N4CCN(Cc5ccc(-c6cccc(Oc7ccc8ncc(C(=O)NC9CC9)n8n7)c6)nc5)CC4)cc3)cc21 (centres unmarked) [Example K456] , give the reported DC50.
> 0.1 µM

For the compound shown here, CNc1cc(Nc2cccn(-c3cccc(C(=O)NCCCCCCCCCCc4cccc5c4n(C)c(=O)n5C4CCC(=O)NC4=O)c3)c2=O)nn2c(C(=O)N[C@@H]3C[C@@H]3F)cnc12 (some centres unmarked) [Example K226] , give the reported DC50.
> 0.1 µM

For the compound shown here, Cc1cc(C)cc(Nc2cc(NCCCCc3ccc4c(c3)n(C)c(=O)n4C3CCC(=O)NC3=O)c3ncc(C(=O)N[C@@H]4C[C@@H]4F)n3n2)c1 (some centres unmarked) [Example K402] , give the reported DC50.
> 0.1 µM
